meta.source: ChEMBL document CHEMBL4689842

Tested on: U2OS
procedureText: Multiplex assay against U2OS
Format: toxicity, cell-based
setupConditions: human, 48 h, 10 µM, compound concentration 10 uM, replicate 1
endpointLabel: Total Cell Count

compound="Cc1ccc2c(c1)c1c(n2CCc2ccc(C)nc2)CCN(C)C1 [LATREPIRDINE]" observedmeasurement=240
compound=CC(C)c1noc(N2CCC(COc3ccc(-c4ccc(S(C)(=O)=O)cc4)nc3)CC2)n1 observedmeasurement=231
compound="CCc1nn(CCCN2CCN(c3cccc(Cl)c3)CC2)c(=O)n1CCOc1ccccc1.Cl [NEFAZODONE HYDROCHLORIDE]" observedmeasurement=246
compound="O=C(c1cc2c(cc1F)OC(c1ccc(F)cc1)(c1ccc(Cl)cc1Cl)O2)N1CCOCC1 (centres undefined)" observedmeasurement=179

====

Tested on: U2OS
procedureText: Multiplex assay against U2OS
Format: toxicity, cell-based
setupConditions: human, 12 h, 1 µM, compound concentration 1 uM, replicate 1
Listed compounds paired with reported Population Membrane Permeable-Phenotype (%)
endpointLabel: Population Membrane Permeable-Phenotype (%)

compound=CCOC(=O)Nc1cc(-c2ccc(C)c(NS(C)(=O)=O)c2)nn2c(C)nnc12 observedmeasurement=9%
compound=Cl.O=C(O)c1cc(-c2ccc(C3CCNCC3)cc2)c2ccc(-c3ccc(C(F)(F)F)cc3)cc2c1 observedmeasurement=8%
compound="Cc1ccc2c(c1)c1c(n2CCc2ccc(C)nc2)CCN(C)C1 [LATREPIRDINE]" observedmeasurement=6%
compound=CCc1ccc(OCc2ccccc2C(=O)Nc2ccc3nc(C)cc(N)c3c2)cc1.Cl observedmeasurement=27%
compound="CN1CCN(Cc2ccc(Nc3ncc(Cl)c(Nc4ccccc4S(=O)(=O)N(C)C)n3)cc2)CC1 [DUBERMATINIB]" observedmeasurement=6%
compound=CC(C)OC(=O)N1CCC(Oc2ncnc3c2cnn3-c2ccc(S(C)(=O)=O)cc2F)CC1 observedmeasurement=6%
compound="Cc1cccc(CN2CCN(C(c3ccccc3)c3ccc(Cl)cc3)CC2)c1.Cl.Cl (centres undefined)" observedmeasurement=3%
compound="Cc1c[nH]c2nccc(Oc3c(F)cc(Nc4cc(Cl)nc(N)n4)cc3F)c12 [BAY-549]" observedmeasurement=15%
compound=CC(C)Oc1ccccc1C(=O)Nc1ccccc1C(=O)Nc1cccc(S(=O)(=O)C(F)(F)F)c1 observedmeasurement=4%

====

Tested on: U2OS
procedureText: Multiplex assay against U2OS
Assay type: toxicity, cell-based
setupConditions: human, 24 h, 10 µM, compound concentration 10 uM, replicate 2
Listed compounds paired with reported Population Healthy Nuclei (%)
endpointLabel: Population Healthy Nuclei (%)

compound="Cc1cccc(CN2CCN(C(c3ccccc3)c3ccc(Cl)cc3)CC2)c1.Cl.Cl (stereo not drawn)" endpointlabel="Population Healthy Nuclei (%)" resultunits=% observedmeasurement=77
compound=CCCSc1nc(N[C@@H]2C[C@H]2c2ccc(F)c(F)c2)c2nnn([C@@H]3C[C@H](OCCO)[C@@H](O)[C@H]3O)c2n1 endpointlabel="Population Healthy Nuclei (%)" resultunits=% observedmeasurement=73
compound=CC(C)Oc1ccccc1C(=O)Nc1ccccc1C(=O)Nc1cccc(S(=O)(=O)C(F)(F)F)c1 endpointlabel="Population Healthy Nuclei (%)" resultunits=% observedmeasurement=56
compound="COc1cc2ncn(-c3cc(OCc4ccccc4C(F)(F)F)c(C(N)=O)s3)c2cc1OC [GW843682X]" endpointlabel="Population Healthy Nuclei (%)" resultunits=% observedmeasurement=69
compound="O=C(c1cc2c(cc1F)OC(c1ccc(F)cc1)(c1ccc(Cl)cc1Cl)O2)N1CCOCC1 (stereo not drawn)" endpointlabel="Population Healthy Nuclei (%)" resultunits=% observedmeasurement=62
compound=C=CC(=O)Nc1cccc(Oc2nc(Nc3ccc(N4CCN(C)CC4)cc3OC)ncc2Cl)c1 endpointlabel="Population Healthy Nuclei (%)" resultunits=% observedmeasurement=84
compound="CCc1nn(CCCN2CCN(c3cccc(Cl)c3)CC2)c(=O)n1CCOc1ccccc1.Cl [NEFAZODONE HYDROCHLORIDE]" endpointlabel="Population Healthy Nuclei (%)" resultunits=% observedmeasurement=56
compound=O=c1cc(N2CCOCC2)oc2c(-c3cccc4c3sc3ccccc34)cccc12 endpointlabel="Population Healthy Nuclei (%)" resultunits=% observedmeasurement=21

====

Test system: HEK-293T
procedureText: Incucyte cell viability with HEK293T; also: filed as whole numbers so only -1 and 0 and 1 occur
Type: toxicity, cell-based
setupConditions: human, 0 h, 10 µM, compound concentration 10 uM, replicate number 2, timepoint 0 hours
endpointLabel: Growth Rate

compound="Cc1ccc2c(c1)c1c(n2CCc2ccc(C)nc2)CCN(C)C1 [LATREPIRDINE]" testedsystem=HEK-293T endpointlabel="Growth Rate" observedmeasurement=0
compound=O=C1CCc2cc(Nc3cc(OC4CCOCC4)c([N+](=O)[O-])cc3Cl)ccc2N1 testedsystem=HEK-293T endpointlabel="Growth Rate" observedmeasurement=1
compound=Nc1ncnc2c1ccn2[C@@H]1O[C@H]([C@H](O)c2ccccc2)[C@@H](O)[C@H]1O testedsystem=HEK-293T endpointlabel="Growth Rate" observedmeasurement=1
compound=Cc1cc(-n2nc(Cc3cc(F)cc(C(F)(F)F)c3)nc2C)ccc1C(N)=O testedsystem=HEK-293T endpointlabel="Growth Rate" observedmeasurement=0
compound=CC(C)Oc1ccc(-c2c[nH]cc2CN(C)CCN)cc1 testedsystem=HEK-293T endpointlabel="Growth Rate" observedmeasurement=1
compound=O=S1(=O)c2cccc3cccc(c23)N1CCCN1CCN(c2ccc(F)cc2)CC1 testedsystem=HEK-293T endpointlabel="Growth Rate" observedmeasurement=0
compound=CN1C[C@H](Nc2cnn(C)c(=O)c2Br)C[C@H](c2ccccc2)C1 testedsystem=HEK-293T endpointlabel="Growth Rate" observedmeasurement=0
compound=Cc1cnc(-c2cc(Cl)ccc2F)cc1-n1c(=O)n(CC(N)=O)c2ccccc21 testedsystem=HEK-293T endpointlabel="Growth Rate" observedmeasurement=1
compound=CC(C)OC(=O)N1CCC(Oc2ncnc3c2cnn3-c2ccc(S(C)(=O)=O)cc2F)CC1 testedsystem=HEK-293T endpointlabel="Growth Rate" observedmeasurement=1
compound=Cc1noc([C@H]2C[C@@H](c3ccc(C(F)(F)F)cc3)CN(C(=O)N3CCS(=O)(=O)C3)C2)n1 testedsystem=HEK-293T endpointlabel="Growth Rate" observedmeasurement=0
compound=C[C@]1(C(=O)N(CCCC(=O)O)Cc2cccc(Cl)c2)CCN1C(=O)c1csc2ccccc12 testedsystem=HEK-293T endpointlabel="Growth Rate" observedmeasurement=0
compound=C[C@H](NC(=O)c1cnc2n1[C@](C)(Cc1ccc(C#N)cc1)C(=O)N2c1cc(Cl)c(F)c(Cl)c1)C(=O)NC1(c2ccccn2)CC1 testedsystem=HEK-293T endpointlabel="Growth Rate" observedmeasurement=0
compound=COc1ccc(S(=O)(=O)N2c3ccc(Cl)cc3[C@](O)(c3ccccc3Cl)[C@@H]2C(=O)N2CCC[C@H]2C(N)=O)cc1OC testedsystem=HEK-293T endpointlabel="Growth Rate" observedmeasurement=0
compound=CCCSc1nc(N[C@@H]2C[C@H]2c2ccc(F)c(F)c2)c2nnn([C@@H]3C[C@H](OCCO)[C@@H](O)[C@H]3O)c2n1 testedsystem=HEK-293T endpointlabel="Growth Rate" observedmeasurement=0
compound=CC(C)c1noc(N2CCC(COc3ccc(-c4ccc(S(C)(=O)=O)cc4)nc3)CC2)n1 testedsystem=HEK-293T endpointlabel="Growth Rate" observedmeasurement=0
compound=CN(C)C(=O)Cn1cc(-c2nc([C@@](C)(c3ccc(-c4cnc(N)nc4)cc3)C3CC3)no2)cn1 testedsystem=HEK-293T endpointlabel="Growth Rate" observedmeasurement=1
compound=O=C(N[C@@H](C1CC1)C(F)(F)F)c1cc(-c2cnn3cc(-c4ccc(F)cc4)cnc23)cs1 testedsystem=HEK-293T endpointlabel="Growth Rate" observedmeasurement=1
compound=Cl.Cl.Cl.c1ccc(N2CCN(Cc3nc4ccccc4[nH]3)CC2)nc1 testedsystem=HEK-293T endpointlabel="Growth Rate" observedmeasurement=0
compound=COc1cc(-c2cn([C@H]3CCc4ccccc4N(CC(F)(F)F)C3=O)nn2)ccc1-n1ccc(C)n1 testedsystem=HEK-293T endpointlabel="Growth Rate" observedmeasurement=1
compound=CN1CCN(Cc2ccc(Nc3ncc(Cl)c(Nc4ccccc4S(=O)(=O)N(C)C)n3)cc2)CC1 testedsystem=HEK-293T endpointlabel="Growth Rate" observedmeasurement=1
compound=COc1cc2c(cc1NS(=O)(=O)c1ccc(Br)cc1C)n(C)c(=O)n2C testedsystem=HEK-293T endpointlabel="Growth Rate" observedmeasurement=0
compound="Cc1ccccc1C(=O)Nc1ccc(C(=O)N2CCCC(O)c3cc(Cl)ccc32)c(C)c1 (centres undefined)" testedsystem=HEK-293T endpointlabel="Growth Rate" observedmeasurement=0
compound=O=C(O)C1CN(Cc2ccc(-c3nc4cc(Cc5ccccc5F)ccc4s3)c(F)c2)C1 testedsystem=HEK-293T endpointlabel="Growth Rate" observedmeasurement=0
compound=C[C@H](NC[C@H](O)CP(=O)(O)CC1CCCCC1)c1ccc(Cl)c(Cl)c1.Cl testedsystem=HEK-293T endpointlabel="Growth Rate" observedmeasurement=0
compound=CCOC(=O)CCNc1cc(N2CCc3ccccc3CC2)nc(-c2cccnc2)n1 testedsystem=HEK-293T endpointlabel="Growth Rate" observedmeasurement=1
compound="Cl.Clc1ccc(CCCOCCCN2CCCCC2)cc1 [PITOLISANT HYDROCHLORIDE]" testedsystem=HEK-293T endpointlabel="Growth Rate" observedmeasurement=0
compound="CCc1nn(CCCN2CCN(c3cccc(Cl)c3)CC2)c(=O)n1CCOc1ccccc1.Cl [NEFAZODONE HYDROCHLORIDE]" testedsystem=HEK-293T endpointlabel="Growth Rate" observedmeasurement=0
compound=CO[C@@H](C)c1c(Nc2ccc([C@H](N(C)C(=O)C3CCS(=O)(=O)CC3)C(F)(F)F)cc2)cnc2cc(Cl)nn12 testedsystem=HEK-293T endpointlabel="Growth Rate" observedmeasurement=1
compound=CCNC(=O)c1cc2c(N3CCOC[C@@H]3C)ccnc2n1C testedsystem=HEK-293T endpointlabel="Growth Rate" observedmeasurement=0
compound=O=C(Cc1ccccc1)Nc1nc2ccc(Cl)cc2c2nc(-c3ccco3)nn12 testedsystem=HEK-293T endpointlabel="Growth Rate" observedmeasurement=0
compound="Cc1cccc(CN2CCN(C(c3ccccc3)c3ccc(Cl)cc3)CC2)c1.Cl.Cl (centres undefined)" testedsystem=HEK-293T endpointlabel="Growth Rate" observedmeasurement=0
compound=COCCOc1nc(-c2ccc(Cl)nc2)nc2c1CN(C(=O)c1ncn3ccccc13)CC2 testedsystem=HEK-293T endpointlabel="Growth Rate" observedmeasurement=1
compound=C[C@]1(O)C[C@@H](c2nc(-c3ccc4ccc(-c5ccccc5)nc4c3)c3c(N)nccn32)C1 testedsystem=HEK-293T endpointlabel="Growth Rate" observedmeasurement=1
compound=COc1ccccc1CN[C@H]1C2CCN(CC2)[C@H]1C(c1ccccc1)c1ccccc1 testedsystem=HEK-293T endpointlabel="Growth Rate" observedmeasurement=0
